Target: human orexin-2 receptor (Homo sapiens (Human), UniProt O43614)
Sequence (O43614 whole entry): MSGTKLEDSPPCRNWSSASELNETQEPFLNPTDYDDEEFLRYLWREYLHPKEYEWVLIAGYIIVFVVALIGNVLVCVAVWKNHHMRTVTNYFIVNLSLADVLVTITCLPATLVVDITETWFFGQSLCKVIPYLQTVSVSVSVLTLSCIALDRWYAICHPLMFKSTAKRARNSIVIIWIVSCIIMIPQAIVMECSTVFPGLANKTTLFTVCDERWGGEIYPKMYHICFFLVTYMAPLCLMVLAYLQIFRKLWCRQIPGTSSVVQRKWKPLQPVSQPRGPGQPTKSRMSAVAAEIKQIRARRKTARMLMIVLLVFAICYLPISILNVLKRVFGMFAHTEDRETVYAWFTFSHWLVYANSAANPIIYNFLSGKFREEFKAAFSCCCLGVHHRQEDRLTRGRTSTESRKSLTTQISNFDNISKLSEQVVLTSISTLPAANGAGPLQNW
Experiment: FLIPR Ca2+ Flux Assay, orexin-2 receptor
Conditions: CHO cells expressing the human orexin-2 receptor; agonist 70 pM Ala-6,12 orexin-A; read-out: hOX2R FLIPR IC50
pIC50: −log10 of the molar value.
Give MET when the value for pIC50 is at least 7. Give NOT MET when it is less.

# Compound, Tgt, Class assignment
records = [
    ("CCN(CCc1cc(C)c(C(C)(C)O)cn1)C(=O)c1ccccc1-n1nccn1 [Example 47]", "human orexin-2 receptor (Homo sapiens (Human), UniProt O43614)", "MET"),
    ("CCN(CCc1cccc(C(C)(C)O)n1)C(=O)c1ccc(F)cc1-n1nccn1 [Example 13]", "human orexin-2 receptor (Homo sapiens (Human), UniProt O43614)", "MET"),
    ("CCN(CCc1cccc(C(C)(C)O)n1)C(=O)c1ncccc1-c1ccccc1 [Example 26]", "human orexin-2 receptor (Homo sapiens (Human), UniProt O43614)", "NOT MET"),
    ("CCN(CCc1cnc(C(C)(C)O)cn1)C(=O)c1ccccc1-n1nccn1 [Example 46]", "human orexin-2 receptor (Homo sapiens (Human), UniProt O43614)", "NOT MET"),
    ("CCN(CCc1cccc(C(C)(C)O)n1)C(=O)c1cccnc1-n1cccn1 [Example 24]", "human orexin-2 receptor (Homo sapiens (Human), UniProt O43614)", "MET"),
    ("CCN(CCc1ccc(C(C)(C)O)cn1)C(=O)c1ccccc1-n1cccn1 [Example 53]", "human orexin-2 receptor (Homo sapiens (Human), UniProt O43614)", "NOT MET"),
    ("CCN(CCc1cccc(C(C)(C)O)n1)C(=O)c1ccc(OC)nc1C1CC1 [Example 19]", "human orexin-2 receptor (Homo sapiens (Human), UniProt O43614)", "MET"),
    ("CCN(CCc1ccc(C(C)(C)O)cn1)C(=O)c1ccccc1-n1ncnn1 [Example 55]", "human orexin-2 receptor (Homo sapiens (Human), UniProt O43614)", "NOT MET"),
    ("CCN(CCc1cccc(C(C)(C)O)n1)C(=O)c1ccccc1C1CC1 [Example 15]", "human orexin-2 receptor (Homo sapiens (Human), UniProt O43614)", "MET"),
]
